ASSAY_DETAILS: Intrinsic clearance in dog hepatocytes
Type: ADME, cell-based, Canis lupus familiaris, Hepatocyte
ASSAY_SETUP: read-out: CLH
EXPERIMENTAL_ENDPOINT: CLint scaled (mL/min/kg)
Unit mL/min/kg implied. Number only.

Fill in CLint scaled for record NC(=O)c1ccn(-c2cnc(NC[C@]3(c4ncccc4F)C[C@H](F)C3)nc2)c1 [RELDESEMTIV]
37

====

The entries below come with measured log10(EC30) values attached.
Test system: Psoas muscle
ASSAY_DETAILS: Increase in psoas muscle force in rabbit skinned single fiber preparation at a calcium concentration that produces a force increase that is 25% of the maximum response in a control preparation by skinned fast skeletal muscle fiber assay
Assay type: functional
ASSAY_SETUP: Oryctolagus cuniculus
Remember, log10 of EC30, in µM.

Fill in log10(EC30) for record Fc1ccc(Cc2nsc(NCCc3ccc(Cl)cc3)n2)cc1
1.14

Others:
Fill in log10(EC30) for record NC(=O)c1ccn(-c2cnc(NCC3(c4ncccc4F)CCC3)nc2)c1
0.15

Fill in log10(EC30) for record NC(=O)c1cccc(-c2ccc(NCC3(c4ccc(F)cc4)CCC3)nn2)c1
-0.22

Fill in log10(EC30) for record CC(C)(CNc1nc(-c2ccc(C(N)=O)cc2)ns1)c1ccc(F)cc1
0.36

Fill in log10(EC30) for record NC(=O)c1cnn(-c2ccc(NC[C@]3(c4ncccc4F)C[C@H](F)C3)nn2)c1
0.04

Fill in log10(EC30) for record CN(C)C(=O)c1cccc(-c2nsc(NCC(C)(C)c3ccc(F)cc3)n2)c1
0.49

Fill in log10(EC30) for record NC(=O)c1cccc(-c2ccc(NCC3(c4ccccn4)CCC3)nn2)c1
-0.05

Fill in log10(EC30) for record NC(=O)c1cnc(-c2ccc(NCC3(c4ncccc4F)CCC3)nn2)o1
0.73

Fill in log10(EC30) for record NC(=O)c1cnn(-c2ccc(NCC3(c4ncccc4F)CCC3)nn2)c1
-0.15

Fill in log10(EC30) for record NC(=O)c1ccn(-c2cnc(NC[C@]3(c4ncccc4F)C[C@H](F)C3)nc2)c1
-0.10

====

ASSAY_DETAILS: Metabolic stability in female rat liver microsomes assessed as intrinsic clearance measured after 90 mins by HPLC/MS/MS analysis
Type: ADME, Microsome
ASSAY_SETUP: read-out: CLH
EXPERIMENTAL_ENDPOINT: CLint scaled (L/h/kg)
Unit L/h/kg implied. Number only.

Fill in CLint scaled for record NC(=O)c1ccn(-c2cnc(NC[C@]3(c4ncccc4F)C[C@H](F)C3)nc2)c1
0.9

====

ASSAY_DETAILS: Plasma protein binding in dog assessed as unbound fraction
Type: ADME, cell-free, Canis lupus familiaris
EXPERIMENTAL_ENDPOINT: fraction unbound
// return a plain number; no unit text

Fill in fraction unbound for record NC(=O)c1ccn(-c2cnc(NC[C@]3(c4ncccc4F)C[C@H](F)C3)nc2)c1
0.5

====

ASSAY_DETAILS: Clearance in Beagle dog at 3 mg/kg, po administered as single dose measured up to 24 hrs by HPLC analysis
Format: ADME, organism-based, Canis lupus familiaris
ASSAY_SETUP: in vivo
EXPERIMENTAL_ENDPOINT: CL/F (mL/min/kg)
Unit mL/min/kg implied. Number only.

Fill in CL/F for record NC(=O)c1ccn(-c2cnc(NC[C@]3(c4ncccc4F)C[C@H](F)C3)nc2)c1
22

====

EXPERIMENTAL_SYSTEM: hERG (KCNH2) (Homo sapiens, UniProt Q12809)
Sequence (Q12809 whole entry): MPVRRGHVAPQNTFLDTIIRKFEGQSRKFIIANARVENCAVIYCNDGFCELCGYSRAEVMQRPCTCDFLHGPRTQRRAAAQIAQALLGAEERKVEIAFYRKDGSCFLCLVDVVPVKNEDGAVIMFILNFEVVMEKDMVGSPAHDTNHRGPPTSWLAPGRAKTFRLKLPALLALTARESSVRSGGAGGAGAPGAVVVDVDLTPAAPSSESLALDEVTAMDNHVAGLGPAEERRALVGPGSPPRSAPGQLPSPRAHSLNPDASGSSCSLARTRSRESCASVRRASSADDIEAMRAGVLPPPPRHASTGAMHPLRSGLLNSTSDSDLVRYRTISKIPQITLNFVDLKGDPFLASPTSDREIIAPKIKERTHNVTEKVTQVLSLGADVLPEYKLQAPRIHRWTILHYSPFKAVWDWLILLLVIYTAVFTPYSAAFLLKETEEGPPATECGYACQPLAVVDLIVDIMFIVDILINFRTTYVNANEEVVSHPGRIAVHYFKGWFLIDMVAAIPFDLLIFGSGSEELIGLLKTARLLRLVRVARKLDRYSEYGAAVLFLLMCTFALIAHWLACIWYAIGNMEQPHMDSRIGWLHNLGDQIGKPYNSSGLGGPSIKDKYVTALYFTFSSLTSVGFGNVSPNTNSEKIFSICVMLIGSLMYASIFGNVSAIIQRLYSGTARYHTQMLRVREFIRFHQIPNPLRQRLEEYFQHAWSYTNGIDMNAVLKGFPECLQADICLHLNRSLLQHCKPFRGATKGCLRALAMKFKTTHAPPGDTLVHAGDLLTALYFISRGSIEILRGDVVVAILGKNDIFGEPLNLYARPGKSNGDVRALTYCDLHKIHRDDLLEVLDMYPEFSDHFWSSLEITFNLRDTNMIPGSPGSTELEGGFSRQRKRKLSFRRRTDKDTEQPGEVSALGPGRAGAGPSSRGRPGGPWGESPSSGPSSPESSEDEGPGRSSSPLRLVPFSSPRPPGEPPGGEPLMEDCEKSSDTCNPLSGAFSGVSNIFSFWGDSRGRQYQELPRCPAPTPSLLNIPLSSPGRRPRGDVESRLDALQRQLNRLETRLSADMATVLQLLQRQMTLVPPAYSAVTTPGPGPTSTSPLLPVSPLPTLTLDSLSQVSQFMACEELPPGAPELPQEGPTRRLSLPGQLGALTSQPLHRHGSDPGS
ASSAY_DETAILS: Displacement of [3H]astemizole from human ERG expressed in HEK293 cells at 100 uM relative to control
Assay type: cell-based
ASSAY_SETUP: HEK293 cells that express hERG, probe [3H]astemizole
Please note: Y applies when inhibition at 100 µM is 30% or greater, and N applies otherwise.

Worked examples, 5 molecules total:
Does NC(=O)c1cnn(-c2ccc(NCC3(c4ncccc4F)CCC3)nn2)c1 have a reported inhibition at 100 µM of at least 30%?
N

Does NC(=O)c1ccn(-c2cnc(NCC3(c4ncccc4F)CCC3)nc2)c1 have a reported inhibition at 100 µM of at least 30%?
Y

Does NC(=O)c1ccn(-c2ccc(NCC3(c4ncccc4F)CCC3)nn2)c1 have a reported inhibition at 100 µM of at least 30%?
N

Does CNC(=O)c1cccc(-c2cnc(NC[C@]3(c4ncccc4F)C[C@H](F)C3)nc2)c1 have a reported inhibition at 100 µM of at least 30%?
Y

Does NC(=O)c1cccc(-c2cnc(NC[C@]3(c4ncccc4F)C[C@H](F)C3)nc2)c1 have a reported inhibition at 100 µM of at least 30%?
Y

Others:
Does NC(=O)c1cnn(-c2ccc(NC[C@]3(c4ncccc4F)C[C@H](F)C3)nn2)c1 have a reported inhibition at 100 µM of at least 30%?
N

Does NC(=O)c1ccn(-c2cnc(NC[C@]3(c4ncccc4F)C[C@H](F)C3)nc2)c1 have a reported inhibition at 100 µM of at least 30%?
Y

====

ASSAY_DETAILS: Drug distribution in Sprague-Dawley rat brain to blood ratio at 100 mg/kg, po by HPLC analysis
Assay type: ADME, organism-based
EXPERIMENTAL_ENDPOINT: Kp
// return a plain number; no unit text

Guide cases for Kp, answers given:
Fill in Kp for record C#Cc1cnc2nc(O)n(C(CC)CC)c2n1
0.27

Fill in Kp for record CNC(=O)c1cccc(-c2cnc(NC[C@]3(c4ncccc4F)C[C@H](F)C3)nc2)c1
0.027

Fill in Kp for record NC(=O)c1ccn(-c2cnc(NC[C@]3(c4ncccc4F)C[C@H](F)C3)nc2)c1
0.063

Others:
Fill in Kp for record NC(=O)c1cccc(-c2cnc(NC[C@]3(c4ncccc4F)C[C@H](F)C3)nc2)c1
0.15

====

ASSAY_DETAILS: Plasma protein binding in human assessed as unbound fraction
Assay type: ADME, cell-free
EXPERIMENTAL_ENDPOINT: fraction unbound
// return a plain number; no unit text

Fill in fraction unbound for record NC(=O)c1ccn(-c2cnc(NC[C@]3(c4ncccc4F)C[C@H](F)C3)nc2)c1
0.49

====

System: Psoas muscle
ASSAY_DETAILS: Increase in psoas muscle force in rabbit skinned single fiber preparation at a calcium concentration that produces a force increase that is 25% of the maximum response in a control preparation by skinned fast skeletal muscle fiber assay
Type: functional
ASSAY_SETUP: Oryctolagus cuniculus
EXPERIMENTAL_ENDPOINT: EC30 (nM)
Unit nM implied. Number only.

Guide cases for EC30, answers given:
Fill in EC30 for record CC(C)(CNc1ncc(-c2cccc(C(N)=O)c2)cn1)c1ccc(F)cc1
7800

Fill in EC30 for record CNC(=O)c1cccc(-c2cnc(NC[C@]3(c4ncccc4F)C[C@H](F)C3)nc2)c1
500

Fill in EC30 for record CC(C)(CNc1ccc(-c2cccc(C(N)=O)c2)cn1)c1ccc(F)cc1
1500

Fill in EC30 for record NC(=O)c1ccn(-c2ccc(NCC3(c4ncccc4F)CCC3)nn2)c1
1100

Fill in EC30 for record CC(C)(CNc1nc(-c2cccc(C(N)=O)c2)ns1)c1ccc(F)cc1
1400

Fill in EC30 for record NC(=O)c1cccc(-c2ccc(NCC3(c4ccc(F)cn4)CCC3)nn2)c1
2300

Fill in EC30 for record NC(=O)c1cnn(-c2cnc(NC[C@]3(c4ncccc4F)C[C@H](F)C3)nc2)c1
3300

Fill in EC30 for record NC(=O)c1cccc(-c2ccc(NCC3(c4ncccc4F)CCC3)nn2)c1
500

Fill in EC30 for record CC(C)(CNc1nsc(-c2cccc(C(N)=O)c2)n1)c1ccc(F)cc1
7100

Pending compound:
Fill in EC30 for record NC(=O)c1cnc(-c2ccc(NCC3(c4ncccc4F)CCC3)nn2)s1
400

====

Test system: Psoas muscle
ASSAY_DETAILS: Increase in psoas muscle force in rabbit skinned single fiber preparation at a calcium concentration that produces a force increase that is 25% of the maximum response in a control preparation by skinned fast skeletal muscle fiber assay
Assay type: functional
ASSAY_SETUP: Oryctolagus cuniculus
EXPERIMENTAL_ENDPOINT: EC30

Name the recorded EC30 of CC(C)(CNc1ccc(-c2cccc(C(N)=O)c2)nn1)c1ccc(F)cc1 , assay system Psoas muscle.
3 µM

Name the recorded EC30 of CC(CNc1nc(Cc2ccc(F)cc2)ns1)c1ccc(Cl)cc1 (stereo unspecified) , assay system Psoas muscle.
16.7 µM

Name the recorded EC30 of NC(=O)c1cccc(-c2cnc(NC[C@]3(c4ncccc4F)C[C@H](F)C3)nc2)c1 , assay system Psoas muscle.
0.8 µM

Name the recorded EC30 of NC(=O)c1cnn(-c2ccc(NCC3(c4ncccc4F)CC(F)(F)C3)nn2)c1 , assay system Psoas muscle.
4 µM

Pending molecule:
Name the recorded EC30 of CC(C)(CNc1nc(Cc2ccc(F)cc2)ns1)c1ccc(Cl)cc1 , assay system Psoas muscle.
7.4 µM
